- assayed_system: Neutrophil elastase (Homo sapiens)
- Sequence (P08246 whole entry): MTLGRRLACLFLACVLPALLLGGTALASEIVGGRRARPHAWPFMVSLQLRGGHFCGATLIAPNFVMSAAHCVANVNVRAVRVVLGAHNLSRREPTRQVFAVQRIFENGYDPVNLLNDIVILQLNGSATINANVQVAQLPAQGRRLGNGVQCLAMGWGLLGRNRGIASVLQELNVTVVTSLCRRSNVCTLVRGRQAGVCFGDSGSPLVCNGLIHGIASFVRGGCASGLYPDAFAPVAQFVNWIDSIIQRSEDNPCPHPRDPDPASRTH
- assay_overview: Component deacylation rate constant for interaction with human leukocyte elastase
property_name: koff (s⁻¹)

>  <compound>
CC(C)C[C@H](NC(=O)C1CCCN1c1nc2ccccc2c(=O)o1)C(N)=O (stereo partly drawn)

>  <assayed_system>
Neutrophil elastase (Homo sapiens)

>  <property_name>
koff

>  <reading_unit>
s⁻¹

>  <measurement>
0.000324

$$$$

(A) Cc1cccc2nc(OCC(C)C)oc(=O)c12
(B) O=c1oc(/C=C/c2ccccc2)nc2ccccc12
(C) COC(=O)[C@H](Cc1ccc(O)cc1)Nc1nc2ccccc2c(=O)o1
(D) O=c1oc(NCCc2ccccc2)nc2ccccc12
(E) NC(=O)[C@H](Cc1ccccc1)Nc1nc2ccccc2c(=O)o1
// smallest koff at index 0, largest at the end # the answer lists labels in the order requested A, E, C, D, B

(P) CCC(C)CNc1nc2cccc(C)c2c(=O)o1 (stereo not drawn)
(Q) CCCCN(CCCC)c1nc2ccccc2c(=O)o1
Of P versus Q , which is the one with smaller reported koff? # reply format: chosen label P

(A) CCOc1nc2cc(N(C)C)ccc2c(=O)o1
(B) CCCNC(=O)Nc1ccc2c(=O)oc(NC(C)C)nc2c1
(C) CNc1nc2cccc(C)c2c(=O)o1
(D) C/C=C/c1cccc2nc(OCC)oc(=O)c12
(E) CC(=O)NCc1nc2ccccc2c(=O)o1
// smallest koff at index 0, largest at the end # the answer lists labels in the order requested A, D, E, B, C
